TGI values by entry
system: SF-295 CNS; assay: NCI tumour cell line growth inhibition, 48 h

compound	comparison.sign	TGI (µM)
COC1=CC23CCCN2CCc2cc4c(cc2C3C1O)OCO4 (stereo unspecified)	>	100
Cc1cc2cn3c4ccc(O)cc4[nH]c(=O)c3c2cc1C	=	0.221
CN(/N=C/c1cccc2cccnc12)c1ccc([N+](=O)[O-])cc1	>	100
COc1ccc(/C=C2\CCC(C)/C(=C\c3ccc(OC)c(OC)c3)C2=O)cc1OC (stereo unspecified)	=	23
COc1ccc(C[C@@H]2NC[C@@H](O)[C@@H]2OC(C)=O)cc1	=	90
CC(C)OP(=O)(OC(C)C)/C(C#N)=C/c1ccco1	>	100
Fc1ccc(-c2ncn(C3CCNCC3)c2-c2ccnc(Oc3ccc(F)c(F)c3)n2)cc1	>	17.2
CN(C)CC1COC2Cc3ccccc3C1O2 (stereo unspecified)	>	100
COc1ccc(/C=C2\CC(C)CC3C2=NN(C(C)=O)C3c2ccc(OC)cc2)cc1 (stereo unspecified)	=	41.8
O=C(O)CCC/C=C\C[C@H]1C=CC(=O)/C1=C/C[C@@H](O)CCc1cccc(C(F)(F)F)c1	=	6.09
CCN(CC)C(=S)SS(=O)(=O)c1ccc(Cl)cc1	>	100

---

test system: SK-OV-3 ovarian; experiment: NCI tumour cell line growth inhibition, 48 h
TGI values by entry

compound	test.target	TGI
CC(C)(C)OC(=O)N(O)CCCn1cnc2c(N)ncnc21	SK-OV-3 ovarian	> 100 µM
O=C(O)Cc1ccc(Oc2nc3ccccc3nc2C(=O)O)cc1	SK-OV-3 ovarian	> 100 µM
CCN1C[C@]2(C)CC[C@H](OC)C34C1C([C@H](OC(C)=O)[C@@H]32)[C@@]1(OC)C[C@H](OC)[C@H]2C[C@@H]4[C@@H]1[C@H]2O	SK-OV-3 ovarian	> 100 µM
CC(C)C1CC2C(=O)N(c3ccccc3)C(=O)C2c2[nH]c3ccccc3c21 (stereo not drawn)	SK-OV-3 ovarian	79.4 µM
CN(CCc1ccccn1)c1nc(=[N+](C)C)ss1	SK-OV-3 ovarian	> 100 µM
CC(C)(C)c1cc2c(O)c(c1)Cc1cc(C(C#N)(Cc3ccc4ccccc4c3)Cc3ccc4ccccc4c3)cc(c1O)Cc1cc(C(C)(C)C)cc(c1O)Cc1cc(C(C#N)(Cc3ccc4ccccc4c3)Cc3ccc4ccccc4c3)cc(c1O)C2	SK-OV-3 ovarian	> 100 µM
CS(=O)(=O)Nc1cccc(-c2cc(-c3ccccc3Cl)c(C#N)c(N)n2)c1	SK-OV-3 ovarian	13.8 µM
Cc1cc2cn3c4ccc(O)cc4[nH]c(=O)c3c2cc1C	SK-OV-3 ovarian	0.298 µM
CN1CCN(c2cc(C(=O)Nc3cc4cc(-c5cnn(C)c5)ccc4cn3)ccn2)CC1	SK-OV-3 ovarian	2.44 µM
O=C(O)c1ccc(S(=O)(=O)Nc2ccc3oc4c(c3c2)C(=O)CCC4)cc1	SK-OV-3 ovarian	> 100 µM
O=C(O)/C(Cl)=C(\Cl)C(=O)NC1C2CC3CC(C2)CC1C3 (stereo not drawn)	SK-OV-3 ovarian	> 100 µM
OC[C@]1(n2nc3ccccc3n2)OC[C@@H]1c1ccccc1	SK-OV-3 ovarian	> 100 µM
N#CC(=C1CCCCC1)c1nc2ccccc2o1	SK-OV-3 ovarian	> 100 µM
CCN(CC)CCCC(C)Nc1nc(C)cc(Nc2ccc3nc(C)cc(N)c3c2)n1 (stereo not drawn)	SK-OV-3 ovarian	> 100 µM
Cc1nc([C@H]2CC[C@H]3[C@@H]4CCC5=CC(=O)CC[C@]5(C)[C@H]4CC[C@]23C)cs1	SK-OV-3 ovarian	> 100 µM
COc1ccc(C(=O)C(c2ccc(OC)cc2)C2OC(=O)C(Cl)=C2Cl)cc1 (stereo not drawn)	SK-OV-3 ovarian	> 100 µM
Cc1ccc(N=N/C(=N/NC(=O)c2cc(Cl)ccc2C(=O)c2ccccc2)c2ccc(N(CCC#N)CCC#N)cc2C)cc1	SK-OV-3 ovarian	40 µM
Cc1[nH]c2ccccc2c1-c1cc(-c2cc(-c3c(C)[nH]c4ccccc34)nc(N)n2)nc(N)n1	SK-OV-3 ovarian	> 100 µM
CC1(C)OB(O)OC1(C)C	SK-OV-3 ovarian	> 100 µM
Nc1ncc(Cl)c(NCC2(CO)CC(CCc3ccccc3)C2)n1 (stereo not drawn)	SK-OV-3 ovarian	> 100 µM
CCCC(=O)O[C@H]1C=C2C[C@@]34SS[C@]5(CC6=C[C@H](OC(C)=O)[C@@H]7O[C@@H]7[C@H]6N5C3=O)C(=O)N4[C@@H]2[C@H]2O[C@H]21	SK-OV-3 ovarian	3.21 µM
C=C1C(=O)C[C@@]23CCC[C@@]12CC(OCOC)C3 (stereo partly drawn)	SK-OV-3 ovarian	17.8 µM
C[C@]12Cc3cnn(-c4ccc(F)cc4)c3NC1CC[C@@H]1C2CC[C@@]2(C)C1CC[C@@H]2O (stereo partly drawn)	SK-OV-3 ovarian	67.9 µM
O=S(=O)(N/N=C/c1cccc(Cl)c1Cl)c1ccccc1	SK-OV-3 ovarian	> 100 µM
Cc1nccc2c3ccc(OCc4cn(-c5ccc(Cl)cc5)nn4)cc3n(CCCc3ccccc3)c12	SK-OV-3 ovarian	> 33.3 µM
CC(=O)C1C(=O)NC(=O)C1=O (stereo not drawn)	SK-OV-3 ovarian	> 100 µM
Nc1nc2cc3ccc(C4CC(O)C(CO)O4)cc3cc2c(=O)[nH]1 (stereo not drawn)	SK-OV-3 ovarian	> 100 µM
NC(=O)c1coc(C2OC(CO)C(O)C2O)n1 (stereo not drawn)	SK-OV-3 ovarian	> 100 µM
COc1ccc(/C=C2\CC(C)CC3C2=NN(C(C)=O)C3c2ccc(OC)cc2)cc1 (stereo not drawn)	SK-OV-3 ovarian	> 100 µM
CC(C)CC(=O)Nc1n[nH]c2c1CN(C(=O)C1CCN(C)CC1)C2(C)C	SK-OV-3 ovarian	> 10 µM
CCN(CC)CCCn1c(=O)c2ccccc2n2c3c(=O)n(C)c(=O)n(C)c3nc12	SK-OV-3 ovarian	14.7 µM
O=C(Cc1nc2ccccc2s1)C(=O)Nc1cccc(Cl)c1	SK-OV-3 ovarian	> 100 µM
CN(C)c1ncc(-c2ccc(C(F)(F)F)cc2)c(NC2CCCCCC2)n1	SK-OV-3 ovarian	95.4 µM
CC(=O)Oc1ccc2c(c1)oc1c3ccc(OC(C)=O)cc3n(C)c(=O)c21	SK-OV-3 ovarian	> 100 µM
CC(=O)NNc1nc(C)c(C(/C=C/c2ccc([N+](=O)[O-])cc2)=N/NC(N)=S)s1	SK-OV-3 ovarian	> 100 µM
COc1cc(O)c2c(c1)C(=O)C=C(Cl)C2=O	SK-OV-3 ovarian	> 100 µM
O=Cc1ccc(-c2ccc(-c3nc4ccccc4o3)cc2)s1	SK-OV-3 ovarian	99.5 µM
Cc1oc(N)c(S(=O)(=O)c2ccc(Cl)cc2)c1C	SK-OV-3 ovarian	> 100 µM
O=C(Nc1c(C(F)(F)F)cc(-c2ccccc2)[nH]c1=O)N1CCOCC1	SK-OV-3 ovarian	> 100 µM
Nc1ccccc1NC(=O)c1ccc(CCCC(=O)Nc2ccc(C3CC3N)cc2)cc1 (stereo not drawn)	SK-OV-3 ovarian	42.4 µM
O=C(Nc1cc2c(=O)oc3ccccc3c2oc1=O)c1cccnc1	SK-OV-3 ovarian	> 100 µM
O/N=C1/C(=C/c2ccc(Oc3ccccc3)cc2)CCCC1C(NO)c1ccc(Oc2ccccc2)cc1 (stereo not drawn)	SK-OV-3 ovarian	> 100 µM
N#CC(C#N)=C(N)/C(C#N)=C/c1ccc2ccccc2n1	SK-OV-3 ovarian	> 100 µM

---

tested on: SNB-78 CNS; test: NCI tumour cell line growth inhibition, 48 h
TGI values by entry
measure: TGI

compound	test.target	observed.measurement
CN(/N=C/c1cccc2cccnc12)c1ccc([N+](=O)[O-])cc1	SNB-78 CNS	> 100 µM
CC1=C(C(=O)NCc2ccccc2)C(c2ccc([N+](=O)[O-])cc2)C(C(=O)NCc2ccccc2)=C(C)N1	SNB-78 CNS	> 100 µM
CC(C)CCC[C@@H](C)C1CCC2[C@@H]3CC=C4C[C@@H](C(=O)NCC[N+](C)(C)CCCS(=O)(=O)[O-])CC[C@]4(C)C3CC[C@@]21C (stereo partly drawn)	SNB-78 CNS	37.4 µM

---

tested on: OVCAR-3 ovarian; assay: NCI tumour cell line growth inhibition, 48 h
GI50 values by entry

compound	GI50
COc1ccc(/C=C2\CC(C)CC3C2=NN(C(C)=O)C3c2ccc(OC)cc2)cc1 (configuration not stated)	18700 nM
O=C(Nc1ccccc1O)c1ccc(CNc2ccnc(C(F)(F)F)c2)cc1	4880 nM
CS(=O)(=O)CCNCc1ccc(-c2ccc3ncnc(Nc4ccc(OCc5cccc(F)c5)c(C(F)(F)F)c4)c3c2)o1	4070 nM
Cc1cc2cn3c4ccc(O)cc4[nH]c(=O)c3c2cc1C	12.5 nM
CN(C)C/C=C/C(=O)Nc1cc2c(Nc3ccc(F)c(Cl)c3F)ncnc2cc1OCCOC(F)F	101 nM
COc1cc2c3c(n(CCCNCCCNCCCNCCCN)c(=O)c2cc1OC)-c1cc2c(cc1C3=O)OCO2	1570 nM
CCN(CC)CCCC(C)Nc1nc(C)cc(Nc2ccc3nc(C)cc(N)c3c2)n1 (configuration not stated)	32100 nM
N#CSc1c[nH]c2ccc(/C=C/C(=O)/C=C(/C=C/c3ccc4[nH]cc(SC#N)c4c3)OB(F)F)cc12	264 nM
O=C(/C=C/C=C/c1c(C2CC2)nc2ccccc2c1-c1ccc(F)cc1)c1cccs1	1500 nM
C[C@@H]1Cc2c([nH]c3ccccc23)[C@@H](c2c(F)cc(NC3CN(CCCF)C3)cc2F)N1CC(F)(F)CO	11300 nM
COc1ccc(C[C@@H]2NC[C@@H](O)[C@@H]2OC(C)=O)cc1	5340 nM
CS(=O)(=O)Nc1cccc(-c2cc(-c3ccccc3Cl)c(C#N)c(N)n2)c1	298 nM
O=C(O)c1ccc(S(=O)(=O)Nc2ccc3oc4c(c3c2)C(=O)CCC4)cc1	> 100000 nM
NCCN.NCCN.O=C[O-].O=C[O-].[Co+3].[O-][Cl+3]([O-])([O-])[O-]	> 100000 nM
CN1CCN(c2cc(C(=O)Nc3cc4cc(-c5cnn(C)c5)ccc4cn3)ccn2)CC1	42.5 nM
CC(=O)N1c2ccccc2NC2=C(C(=O)N(Cc3ccccc3)C2(C)C)C1c1ccco1 (configuration not stated)	208 nM
Nc1ccccc1NC(=O)c1ccc(CCCC(=O)Nc2ccc(C3CC3N)cc2)cc1 (configuration not stated)	1910 nM

This collection of values is drawn from PubChem BioAssay (NCI).
